- System: MDA-MB-435
- assay-overview: NCI tumour cell line growth inhibition, 48 h
Active and inactive are the calls of the source. Cut-off read from the data, not from the text of the source: active = GI50 up to about 1.1 µM and inactive = higher.
Give your call using only these classes: active, inactive

Example entries and their recorded answers appear below.
Cc1cccc2c(N)c3cccc(C(=O)NCC[N+](C)(C)Cc4c([N+](=O)[O-])ncn4C)c3nc12
inactive
CC(=O)OCC1=C(C(=O)O)N2C(=O)C(NC(=O)CSc3ccncc3)C2SC1 (stereo not given)
inactive
COc1ccc(C2OC2C(=O)C23CC4CC(CC(C4)C2)C3)cc1 (stereo not given)
inactive

Kindly review the next compound as well.
Query: Identify the outcome logged in this assay for the compound shown: N#Cc1c(N)n(C2OC(CO)C(O)C2O)c2ncnc(N)c12 (stereo not given)
Reply: active

---

I'd appreciate it if you could supply GI50 values for the items below.
- Test system: NCI-H460
- assay-overview: NCI tumour cell line growth inhibition, 48 h
Calls of active or inactive are those of the source. No stated cut-off is given here; in the data, active = GI50 up to about 1.1 µM and inactive = higher.

Example cases with answers are listed next.
ClCCCc1ccccc1C1=NCCc2ccccc21
43.9 µM (inactive)
COC(=O)CCC(C)[C@H]1CCC2C3C(C[C@H](OC(C)=O)[C@@]21C)[C@@]1(C)CCC2(C[C@H]1C[C@H]3OC(C)=O)OOC1(CCCCC1)OO2 (stereo not given in full)
10.8 µM (inactive)
N#Cc1c(-c2ccccc2)c(C=O)c(=O)n2c1[nH]c1ccccc12
> 100 µM (inactive)
COc1ccc2c(c1O)-c1c(OC)c(OC)cc3c1[C@H](C2)[N+](C)(C)CC3
> 100 µM (inactive)

Now for a further compound.
The compound listed as CC(=O)Nc1ccc(-c2nnc(SCC(=O)Nc3ccc(Cl)cc3)o2)cc1 shows GI50 equal to 10 µM (inactive)

---

- Test system: HOP-92
- assay-overview: NCI tumour cell line growth inhibition, 48 h
Active and inactive are the calls of the source. Cut-off read from the data, not from the text of the source: active = GI50 up to about 1.1 µM and inactive = higher.
recorded-endpoint: GI50

Sample answers from the record:
N[C@H](C(=O)O)[C@@H]1CC(Cl)=NO1
33.2 µM (inactive)
COC(=O)[C@@H]1C[C@@]23CCCN4CC[C@@]5(c6cccc(OC)c6N(C=O)[C@]15CC2)[C@@H]43
> 100 µM (inactive)
CCCCCCCCCCCCCCCCCC(=O)OCC(CN(C)CCN(C)C)OC(=O)CCCCCCCCCCCCCCCCC (stereo not given)
> 100 µM (inactive)
O=C1C/C(=N/c2ccc(Cl)cc2)C(c2ccccc2)N1c1ccccc1 (stereo not given)
10.3 µM (inactive)
O=C1C=CC(=C(c2ccc(O)cc2)c2ccc(O)cc2)C=C1
2.07 µM (inactive)
C=C(CCCCC)CN1CCCC1[C@@](C)(O)CC(=O)OCC (stereo not given in full)
> 100 µM (inactive)

Dear colleague, could you please provide GI50 for the compounds listed below?
1. NS(=O)(=O)c1ccc(Nc2c3ccccc3nc3c(C(=O)NCCCN(CCO)CCO)cccc23)cc1
2. C=CC(C)(C)C(=C)C(=O)N(C)c1ccccc1I
3. COc1cc2oc3c(c(=O)c2c(O)c1/C=C/C(C)C)C(C=C(C)C)Oc1cc(O)ccc1-3 (stereo not given)

Reply:
1: 26.3 µM (inactive); 2: > 100 µM (inactive); 3: 15.6 µM (inactive)

Lookup result for CCCC(C)n1c(C)nc2c1C(=O)c1ccccc1C2=O (stereo not given) ; measured GI50: 16.7 µM (inactive)

---

Assign GI50 to each entry below.
- System: 786-0
- assay-overview: NCI tumour cell line growth inhibition, 48 h
Calls of active or inactive are those of the source. No stated cut-off is given here; in the data, active = GI50 up to about 1.1 µM and inactive = higher.

Here is how some molecules turned out for GI50.
COc1cc2c3c(c1OC)C(=O)C(=O)C1=C3N(CCC1)CC2
43.4 µM (inactive)
Cc1nc([N+](=O)[O-])cn1CC(=N)N
> 100 µM (inactive)
COc1cccc(NC(=O)CC(=O)N2N=C(N3c4ccccc4Sc4ccccc43)CC2c2ccccc2)c1 (stereo not given)
> 100 µM (inactive)
CCOC(=O)/C(C#N)=C/c1ccc2c(-c3c(OCC)ccc4cc(/C=C(\C#N)C(=O)OCC)ccc34)c(OCC)ccc2c1
> 100 µM (inactive)

Attention now turns to another entry.
Looking up C/C=C\C(CC(=O)O)CN1CCC2=C(C1)C(S(=O)(=O)C(F)(F)F)c1ccccc12 (stereo not given) , I found its GI50 recorded as > 100 µM (inactive)
